system: NCI-H23; assay: NCI tumour cell line growth inhibition, 48 h
Counter-ions that a name gives are not always drawn. Calls of active or inactive are those of the source. Cut-off read from the data, not from the text of the source: active = GI50 up to about 1.1 µM and inactive = higher.
Task for the reader: assign each of the following compounds its reported GI50.

> print(dat)
                                   compound       observed.value
1         O=C(Nc1cc(Cl)c(I)c(Cl)c1)C(F)(F)F   26.2 µM (inactive)
2         CCc1nc(N)nc(N)c1-c1ccc2nnn(O)c2c1  > 100 µM (inactive)
3  CCOC(=O)c1nc2ccc(C(F)(F)F)cc2nc1Nc1ccc(F)cc1   40.3 µM (inactive)
4  CCN(CC)CCO/N=C1/C=C2CCC3C(CC[C@@]4(C)C3CC[C@]4(C)O)[C@@]2(C)CC1 (stereo partly specified)   6.75 µM (inactive)
5  CC(=O)Nc1ccc2c3c(cc(O)c2c1)N(C(=O)CCCCCC(=O)Nc1ccc2c4c(cc(O)c2c1)N(C(=O)OC(C)(C)C)CC4CCl)CC3CCl (stereo unspecified)      0.8 µM (active)

Here are 4 compounds. What values of GI50 were reported for them?
1. O=C(O)Cc1nc[nH]c1C(=O)O
2. COc1ccc2cc(C(=O)Nc3ccc(O)c(C(=O)O)c3)ccc2c1OC
3. CC(=O)Nc1ccc(-c2nnc(SCC(=O)Nc3cccc([N+](=O)[O-])c3)o2)cc1
4. CCOC(=O)N1CC2(C)C=CC1C(C(=O)OC)C2 (stereo unspecified)

[A]
1: > 100 µM (inactive); 2: > 100 µM (inactive); 3: 5.13 µM (inactive); 4: > 100 µM (inactive)

For each of the items listed, what is its GI50?
1. CSc1ccc(/C=C2\CN(C)C/C(=C\c3ccc(SC)cc3)C2=O)cc1
2. OC1=CN=C(C2CC2)Oc2ccccc21
3. C#CC1(O)CC(c2ccccc2)N(C)C(c2ccccc2)C1 (stereo unspecified)
4. COc1cc(C2c3cc4c(cc3OC(NNc3ccccc3)C2C)OCO4)cc(OC)c1OC (stereo unspecified)

[A]
1: 4.52 µM (inactive); 2: > 100 µM (inactive); 3: > 100 µM (inactive); 4: 2.83 µM (inactive)

Could I get GI50 for every one of these entries?
1. CCC/C=C/C=C/C(=O)OC1C(C)C2(O)C3C=C(C)C(=O)C3CC(COC(C)=O)=CC2C2C(C)(C)C12OC(=O)C(C)C (stereo unspecified)
2. Cc1nnc2n1N=C(c1cc(F)c(Cl)cc1Cl)/C(=C/c1ccc(-c3ccc([N+](=O)[O-])cc3)o1)S2
3. COC(=O)C(CCSC)NC(=O)CNC(=O)CSc1nnc(COc2ccc(Cl)cc2)n1-c1ccccc1 (stereo unspecified)
4. CCOC(=O)CC/C(=N/Nc1ccc(Cl)cc1[N+](=O)[O-])C(=O)OCC
5. O=C(O)C(Cc1ccccc1)N1C(=O)N/C(=C\c2ccc(F)cc2)C1=O (stereo unspecified)
6. NC(=O)N=C(NCc1ccccc1)NCc1ccccc1
7. O=c1[nH]c(=O)n(C2CC(O)C(CO)O2)cc1Oc1ccccc1 (stereo unspecified)

[A]
1. 12.8 µM (inactive)
2. 34.3 µM (inactive)
3. 16.6 µM (inactive)
4. > 100 µM (inactive)
5. > 100 µM (inactive)
6. > 100 µM (inactive)
7. > 100 µM (inactive)

Give GI50 for each listed item.
1. CC(C)NC(=O)OCCN=C1c2ccccc2C(Br)C(Br)c2ccccc21 (stereo unspecified)
2. Cc1ncc(CSc2ccccc2N)c(CO)c1O
3. COc1ccc(C(=O)/C=C/c2ccc(Oc3cc(C(=O)/C=C/c4ccc(O)cc4)c(O)cc3OC)cc2)c(O)c1 [RHUSCHALCONE I]
4. C=C(Cl)CN1c2ccccc2C=Cc2ccccc21
5. O=C(/C=N/O)Nc1ccc(Cl)c(I)c1
6. CN(C)CCOc1ccc(/C(=C(/CCCl)c2ccccc2)c2ccccc2)cc1 [TOREMIFENE CITRATE]

[A]
15.6 µM (inactive)
> 100 µM (inactive)
2.72 µM (inactive)
> 100 µM (inactive)
17.8 µM (inactive)
17.5 µM (inactive)

List reported GI50 for each of these compounds:
1. C[N+]1(C)C(c2ccccc2)C(=O)O[B@-]1(F)c1ccccc1 (stereo partly specified)
2. CCOC(=O)c1c(SCCN(CC)CC)n(-c2ccccc2)c(=S)n(-c2ccccc2)c1=O
3. CC1(C)C2CCC3CC(CCC#N)CCC3C21C#N (stereo unspecified)
4. CC(C)[C@@H]1NC(=O)[C@@H]2N=C(O[C@H]2C)[C@H](C(C)C)NC(=O)C2N=C1O[C@H]2C
5. FC(F)(F)c1ccccc1N1CCN(c2nc(-c3cccs3)nc3ccc(Br)cc23)CC1
6. O=C(/C(=C(/Br)I)c1ccccc1)c1ccccc1
7. COc1cc(C2CC(C)(Nc3ccccc3)Oc3cc4c(cc32)OCO4)cc(OC)c1OC (stereo unspecified)

[A]
["> 100 µM (inactive)", "15.9 µM (inactive)", "> 100 µM (inactive)", "> 100 µM (inactive)", "34.4 µM (inactive)", "50.4 µM (inactive)", "0.301 µM (active)"]

Would you be so kind as to report GI50 for each listed record?
1. CN(C)CC[N+](C)(C)[BH2-]C(O)O
2. COC(=O)C(=O)CC(=O)c1cccc(OC)c1
3. Cc1cc2c(cc1C)[n+]([O-])c(C(=O)/C=C/c1ccccc1Cl)c(C)[n+]2[O-]

[A]
> 100 µM (inactive)
> 100 µM (inactive)
19.3 µM (inactive)
